- experiment summary: qHTS Assay for Lipid Storage Modulators in Drosophila S3 Cells;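 note: cells counted by Cell Tracker Red CMTPX staining in the red channel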
- condition summary: BODIPY lipid droplet fluorescence, 18-24 h, cells fed with added oleic acid; measured here: cell count max response
Among all 320,000 compounds or so, about 2,100 (0.66%) were called active. About 53% were inconclusive and are not listed. This excerpt belongs to a sample that is enriched for actives.
measure name: cell number change (%)

compound="CC(=O)OCC1=C(C(=O)O)N2C(=O)C(NC(=O)c3ccc(COc4ccc(Cl)cc4)o3)C2SC1 (stereo not given)" recorded_number=12.1
compound=Cc1ccc(-n2c(C)cc(/C=N/NC(=O)c3ccncc3)c2C)c(C)c1 recorded_number=-26.9
compound=Cc1cc(C)cc(-n2c(C)cc(/C=N/NC(=O)c3ccncc3)c2C)c1 recorded_number=-4.41
compound=COc1ccccc1C1=CC(=O)C[C@H](c2ccc(Cl)cc2)C1 recorded_number=-15.5
compound="O=C(NCCCn1ccnc1)C(=O)NCC1OCCN1S(=O)(=O)c1ccc(Br)cc1 (stereo not given)" recorded_number=-6.41
